- assayProtocol: NCI Yeast Anticancer Drug Screen. Data for the cln2 rad14 strain (AID 165);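 note: 0% = growth equal to vehicle treated cultures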
- assaySetup: S. cerevisiae cln2 rad14 strain, at 50.0 µM, stronger effect = higher value
- Experimental: Growth inhibition of yeast strains with defined genetic alterations is measured as a screen for potential anti-cancer activity. Selected strains with alterations in DNA damage repair or cell cycle control were exposed to compounds and growth inhibition was measured relative to vehicle treated controls. The strain used in this assay is cln2 rad14
About 79,000 compounds went through this panel and 15% of them were active in at least one assay; those are over-represented in the sample as a whole.
Record form. Attribute: growth inhibition. Fill in for each entry.
Numbers only, in %.

Worked cases, answers included:
| compound | unitSymbol | growth inhibition |
| --- | --- | --- |
| Cc1c(N)nc([C@H](CC(N)=O)NC[C@H](N)C(N)=O)nc1C(=O)N[C@H](C(=O)N[C@H](C)[C@@H](O)CC(=O)N[C@H](C(=O)NC(O[C@@H]1O[C@@H](C)[C@@H](N)[C@@H](O)[C@H]1O)C(O)c1nc(-c2nc(C(=O)NCCCCN)cs2)cs1)[C@@H](C)O)[C@@H](O[C@@H]1O[C@@H](CO)[C@@H](O)[C@H](O)[C@@H]1O[C@H]1O[C@H](CO)[C@@H](O)[C@H](OC(N)=O)[C@@H]1O)c1c[nH]cn1 (stereo partly drawn) | % | 89.8 |
| Cc1cc(N(CCCl)CCCl)ccc1CN1CCCN(Cc2ccc(N(CCCl)CCCl)cc2C)C1c1ccc(N(CCCl)CCCl)cc1C | % | 87 |

Supply growth inhibition value. Item: O=C(CCN1CC1)NCCc1ccccc1
83.7

###

Record form. Attribute: growth inhibition. Fill in for each entry.
- assayProtocol: NCI Yeast Anticancer Drug Screen. Data for the rad50 strain (AID 155);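 note: 0% = growth of vehicle-only cultures of the same strain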
- assaySetup: S. cerevisiae rad50 strain growth inhibition; at 50.0 µM (retest, dose inferred, filed as 5.0); stronger effect = higher value
Compounds without any hit were thinned out: in the full panel of roughly 79,000, 15% have a hit.
Give bare numbers, in %.

Worked cases, answers included:
| compound | recordedNumber |
| --- | --- |
| CSCCl | 51 |
| CCCC[CH2][Pb]([CH2]CCCC)([CH2]CCCC)[O]C(C)=O | 96 |

Each compound below has a reported value. Please supply its growth inhibition.
1. NC(N)=N/N=C1\C(=O)N(c2ccc(Cl)cc2)C(=O)C1C(=O)Nc1ccc(Cl)cc1 (stereo unspecified)
2. NP(N)(=O)Nc1ccccc1

1: -2; 2: -2

###

- assayProtocol: NCI Yeast Anticancer Drug Screen. Data for the rad50 strain (AID 155);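 note: 0% = growth of vehicle-only cultures of the same strain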
- assaySetup: S. cerevisiae rad50 strain growth inhibition; at 11.0 µM; stronger effect = higher value
The panel holds about 79,000 compounds, 15% with a hit somewhere; the sample as a whole holds those more often.
Record form. Attribute: growth inhibition. Fill in for each entry.
Answers are plain numbers, in %.

| compound | growth inhibition [%] |
| --- | --- |
| O=C(O)C1C2C=CC(C2)C1c1ccccc1 (stereo unspecified) | 1 |
| CC1CCCN(CCc2ccccc2)CC1 (stereo unspecified) | 10 |
| CCOP(=S)(S)OCC.[Pd] | 95 |
| CCCCCCCCCC[Se]C#N | 14 |
| Oc1cccnc1[Se] | 60 |

Next item in the queue.
Supply growth inhibition value. Item: BrCC[N+]12CC[N+](CCBr)(CC1)C2
55

###

- assayProtocol: NCI Yeast Anticancer Drug Screen. Data for the bub3 strain (AID 167)
- assaySetup: S. cerevisiae bub3 mutant strain, at 50.0 µM (retest, dose inferred, filed as 5.0)
Compounds without any hit were thinned out: in the full panel of roughly 79,000, 15% have a hit. Calls of active or inactive are those of the source. No stated cut-off is given here; in the data, active means growth inhibition above about 70%; inactive means the rest.
Hi there, use one of these labels in your reply, thanks! active, inactive

| sampleSmiles | categoryLabel |
| --- | --- |
| NP(N)(=O)Nc1ccccc1 | inactive |

Status in this test for COC(=O)C1=C(C(=O)OC)C2OC1c1cc3ccccc3cc12 ?
active

Status in this test for [C](#Cc1ccccc1)[Hg][C]#Cc1ccccc1 ?
active

###

- assayProtocol: NCI Yeast Anticancer Drug Screen. Data for the rad50EPP+ strain (AID 151);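 note: 0% = growth of vehicle-treated control cultures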
- assaySetup: S. cerevisiae rad50 mutant strain, at 3.7 µM
Compounds without any hit were thinned out: in the full panel of roughly 79,000, 15% have a hit. Active and inactive are the calls of the source. No stated cut-off is given here; in the data, active means growth inhibition above about 70%; inactive means the rest.
Hi there, use one of these labels in your reply, thanks! y for active, n for inactive

| compound | categoryLabel |
| --- | --- |
| NCCc1ccc(OCc2ccccc2)c(OCc2ccccc2)c1 | n |
| COC(=O)c1c(C)ccc2c(O)c3c(cc12)C(=O)c1c2c(cc(O)c1C3=O)C1(C)OC(C)(O2)C(O)C(N(C)C)C1O (stereo unspecified) | n |
| BrCC[N+]12CC[N+](CCBr)(CC1)C2 | n |
| C[CH2][Sn]1([CH2]C)[O]C2C(O)OC(CO)C(O)C2[O]1 (stereo unspecified) | n |
| COC1C(O)C(C)OC(OC2C(Oc3cccc4c(O)c5c(=O)oc6ccc(C)c7c(=O)oc(c34)c5c67)OC(C)C(O)C2O)C1O (stereo unspecified) | n |

Status in this test for CCC1(O)C(=O)OCc2c1cc1n(c2=O)Cc2cc3ccccc3nc2-1 (stereo unspecified) ?
n

Status in this test for C[C@]12CCC3[C@@H](CC[C@@H]4c5nonc5CC[C@]34C)C1CCC2=O (stereo partly specified) ?
n

Status in this test for O=[N+]([O-])c1ccc(-n2nc3ccc4c(no[n+]4[O-])c3[n+]2[O-])c([N+](=O)[O-])c1 ?
n

###

Record form. Attribute: growth inhibition. Fill in for each entry.
- assayProtocol: NCI Yeast Anticancer Drug Screen. Data for the cln2 rad14 strain (AID 165);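 note: 0% = growth equal to vehicle treated cultures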
- assaySetup: S. cerevisiae cln2 rad14 strain, at 5.0 µM (retest, dose inferred, filed as 0.5), stronger effect = higher value
The panel holds about 79,000 compounds, 15% with a hit somewhere; the sample as a whole holds those more often.
Numbers only, in %.

Worked cases, answers included:
| compound | growth inhibition / % |
| --- | --- |
| O=[N+]([O-])c1cc(S(=O)(=O)F)ccc1S | -40 |
| CCNC(=O)O/N=C1/C=C2CC[C@@H]3C(CC[C@@]4(C)C3CC[C@@H]4OC(=O)NCC)[C@@]2(C)CC1 (stereo not given in full) | 96 |
| COc1ccc(OC)c(C=O)c1 | 2 |
| Oc1cc[c]([Hg][Cl])cc1 | 99 |
| Sc1ccc(Cl)cc1 | -1 |

Each compound below has a reported value. Please supply its growth inhibition.
1. Fc1cccc(C2N(Cc3ccc(N(CCCl)CCCl)cc3Cl)CCCN2Cc2ccc(N(CCCl)CCCl)cc2Cl)c1
2. CO/C(N)=C(\C#N)N=Cc1cccnc1
3. OC1CCCC[CH]1[Hg][Cl] (stereo not given)
4. Br[C](Br)(Br)[Hg][c]1ccccc1
5. CC(=O)OCC1OC(OC(C)C)[CH]([Hg][S]Cc2ccccc2)C(OC(C)=O)C1OC(C)=O (stereo not given)
6. CC1C(=O)OCC1(C)O (stereo not given)
7. COC1=[C]([Hg][Br])C(OC)OC1OC (stereo not given)

[-5, 26, 99, 99, 37, 1, 98]

Each compound below has a reported value. Please supply its growth inhibition.
1. Oc1ccc2nc3ccccc3nc2c1
2. CC(Br)CN1CCOCC1 (stereo not given)

19
14

Supply growth inhibition value. Item: O=C(c1ccc(Br)cc1)C1C(c2ccccc2)N1C1CCCCC1 (stereo not given)
-4

###

Record form. Attribute: growth inhibition. Fill in for each entry.
- assayProtocol: NCI Yeast Anticancer Drug Screen. Data for the mlh1 rad18 strain (AID 175)
- assaySetup: S. cerevisiae mlh1 rad18 strain growth inhibition; at 50.0 µM (retest, dose inferred, filed as 5.0); stronger effect = higher value
The panel holds about 79,000 compounds, 15% with a hit somewhere; the sample as a whole holds those more often.
Numbers only, in %.

| molecule | growth inhibition, % |
| --- | --- |
| CC[C@@]1(O)C[C@H](OC2CC(N)C(O)C(C)O2)c2c(O)c3c(c(O)c2[C@H]1C(=O)OC)C(=O)c1cccc(O)c1C3=O (stereo not given in full) | 98 |
| O=C1c2ccccc2-c2c3c(cc4ccnc1c24)OCO3 | 95 |
| Cc1cccc2cc3ccccc3cc12 | 99 |
| O=[N+]([O-])[O][Tl]([c]1ccccc1)[c]1ccccc1 | 41 |

Next item in the queue.
Supply growth inhibition value. Item: CCOc1c(Br)cc(/C=C/[N+](=O)[O-])cc1OC
98

###

- assayProtocol: NCI Yeast Anticancer Drug Screen. Data for the wt1 strain (AID 149);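 note: 0% = growth of vehicle-treated wt1 cultures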
- assaySetup: S. cerevisiae wt1 strain (SPY 50644) growth inhibition; at 100.0 µM
About 79,000 compounds went through this panel and 15% of them were active in at least one assay; those are over-represented in the sample as a whole. Active and inactive are the calls of the source. Rule as the data show it: active = growth inhibition above about 70%; inactive = the rest.
Hi there, use one of these labels in your reply, thanks! active, inactive

Some solved entries appear below for comparison.
| compound | categoryLabel |
| --- | --- |
| OCC(O)C(O)CO (stereo not given) (tested in a mixture with another compound) | inactive |
| COC(=O)C1c2cc3c(c(O)c2C(O)CC1(C)O)C(=O)c1c(O)cc2c(c1C3=O)OC1OC2(C)C(O)C(N(C)C)C1O (stereo not given) | active |
| O=Cc1ccc(C(F)(F)F)cc1.[C-]#[O+].[C-]#[O+].[C-]#[O+].[Cr] | inactive |
| COc1cc([C@@H]2c3cc4c(cc3C[C@@H]3COC(=O)C32)OCO4)cc(OC)c1O (stereo not given in full) | active |

Now, please, on to the next compound.
Status in this test for O=P(Oc1ccc(Cl)cc1)(Oc1ccc(Cl)cc1)N1CC1 ?
inactive
